# Tested on: rice
# Measurement description: Test B flooded paddy test
# Format: in vivo, Oryza sativa
# Measurement context: 1000 g ai/ha, visual rating, scale 0 to 100 (0 no effect, 100 complete control), 13 to 15 days
Measurement label: Rice plant response rating

1) CC(=O)c1cccc(NC(=O)c2sc(C(C)(C)C)nc2C)c1 ... 0
2) CCn1nc(C(C)(C)C)cc1C(=O)Nc1cc(C(=O)NC(C)(C)C)ccn1 ... 20
3) CCn1nc(C(C)(C)C)cc1C(=O)Nc1cccc(C(=O)NCCF)c1 ... 70
4) CCn1nc(C(C)(C)C)cc1C(=O)Nc1cccc(C(=O)N(C)C)c1 ... 30
5) CCn1nc(C(C)(C)C)cc1C(=O)Nc1cccc(C(=O)NCC2CC2)c1 ... 30
6) CCc1nc(C(C)(C)C)sc1C(=O)Nc1cccc(C(=O)NCC2CC2)c1 ... 70
7) CCNC(=O)c1cccc(NC(=O)c2nn(C(C)(C)C)cc2C(F)(F)F)c1 ... 20
8) CCc1nc(C(C)(C)C)sc1C(=O)Nc1cccc(C(=O)NCCF)c1 ... 50
9) CCN(CC)C(=O)c1cccc(NC(=O)c2cc(C(C)(C)C)nn2CCF)c1 ... 40
10) CCNC(=O)c1cccc(NC(=O)c2cc(C(C)(C)C)nn2CC(F)(F)F)c1 ... 80
11) CCNC(=O)c1cccc(NC(=O)c2cc(C(C)(C)C)nn2CC)n1 ... 70
12) Cn1nc(C(C)(C)C)cc1C(=O)Nc1cccc(C#N)c1 ... 0

* * *

Item-by-item account of Surinam Grass plant response rating (0 to 100 scale)
# System: Surinam grass
# Measurement description: Test B pre-/postemergence herbicide test
# Assay type: in vivo, Urochloa decumbens
# Measurement context: 125 g ai/ha; 0 = no effect, 100 = complete control; preemergence
Measurement label: Surinam Grass plant response rating (0 to 100 scale)

1) CCOC(=O)c1cccc(NC(=O)c2cc(C3(C)CC3)nn2CC)c1 [Compound 295] ... 0
2) CCn1nc(C(C)(C)C)cc1C(=O)Nc1nc(C(=O)N2CC=CC2)ccc1F [Compound 281] ... 10
3) CCN1N=C(C(C)(C)C)CC1C(=O)Nc1cc(C(=O)N2CC=CC2)ccc1F (racemic) [Compound 310] ... 30
4) CCN(CC)C(=O)c1cccc(NC(=O)c2nn(C(C)(C)C)cc2Cl)c1 [Compound 218] ... 0

* * *

Item-by-item account of Ducksalad plant response rating
# Tested on: ducksalad
# Measurement description: Test B flooded paddy test
# Assay type: in vivo, Heteranthera limosa
# Measurement context: 1000 g ai/ha, scale 0 to 100 (0 no effect, 100 complete control)
Measurement label: Ducksalad plant response rating

1. CCNC(=O)c1cc(NC(=O)c2cc(C(C)(C)C)nn2CC)c(F)cc1F ... 90
2. C#CCNC(=O)c1cncc(NC(=O)c2cc(C(C)(C)C)nn2CC)n1 ... 0
3. CCN1N=C(C(C)(C)C)CC1C(=O)Nc1cc(C(=O)N2CC=CC2)ccc1F (racemic) ... 90
4. CCn1nc(C(C)(C)C)cc1C(=O)Nc1cc(C(=O)NC)c(F)cc1F ... 30
5. CCn1nc(C(C)(C)C)cc1C(=O)Nc1cncc(C(=O)N2CC=CC2)c1 ... 90
6. CCn1nc(C(C)(C)C)cc1C(=O)Nc1cccc(OS(=O)(=O)CC)c1 ... 90
